system: T-47D breast; assay: NCI tumour cell line growth inhibition, 48 h; in the data active means GI50 below about 0.43 µM; inactive means the rest
# output must be one of active, inactive

Observe how each entry below is paired with its result.
[
  {
    "COMPOUND": "COc1cc(-c2csc(NC(=O)Nc3cc(Cl)cc(Cl)c3)n2)cc(OC)c1OC",
    "CATEGORY_LABEL": "inactive"
  },
  {
    "COMPOUND": "Cc1cc(Nc2cc(N)ncn2)c(=O)n2c1C(=O)NC21CCCCC1",
    "CATEGORY_LABEL": "inactive"
  },
  {
    "COMPOUND": "COc1cc2c3c(n(C)c(=O)c2cc1OC)-c1cc2c(cc1/C3=C\\CCNCCCN)OCO2",
    "CATEGORY_LABEL": "inactive"
  },
  {
    "COMPOUND": "CCCCCCCCCCCCCCCC1=NC(C)(C)CN1C(C)C",
    "CATEGORY_LABEL": "inactive"
  },
  {
    "COMPOUND": "CCN(c1cc(C#CCN2CCOCC2)cc(C(=O)NCc2c(C)cc(C)[nH]c2=O)c1C)C1CCC(N(C)CCOC)CC1 (centres undefined)",
    "CATEGORY_LABEL": "inactive"
  }
]

Now take the following compound into account.
query: What was the test verdict on "C=C1C(=O)O[C@H]2[C@H]1CC/C(COC(=O)NCc1ccc(Cn3c(=O)sn(-c4ccccc4)c3=O)cc1)=C\CC[C@@]1(C)O[C@@H]21" ?
result: inactive

---

tested on: K-562 leukemia; test: NCI tumour cell line growth inhibition, 48 h
MEASURED_PARAMETER: TGI

Below, 5 compounds whose answers are already recorded.
[
  {
    "COMPOUND": "CC[C@H](C)C(=O)O[C@H]1C[C@H](O)C=C2C=C[C@H](C)[C@H](CC[C@@H](O)C[C@@H](O)CC(=O)O)[C@H]21",
    "TGI": "> 100 µM"
  },
  {
    "COMPOUND": "CC1(C)CCc2c(c(N=Nc3ccc(F)cc3)c3ccccc3c2O)O1",
    "TGI": "> 100 µM"
  },
  {
    "COMPOUND": "NCCCNCCCCN1CC1",
    "TGI": "> 20.7 µM"
  },
  {
    "COMPOUND": "Brc1ccc2c(-c3csc(-c4c[nH]c5ccccc45)n3)c[nH]c2c1",
    "TGI": "37.5 µM"
  },
  {
    "COMPOUND": "CN(C)CCCn1c(-c2nonc2N)nc2cnccc21",
    "TGI": "> 25 µM"
  }
]

I have 2 compounds here; please give me TGI for each one.
1. Cc1cccc(Cc2cnc(NC(=O)CCc3ccc(C)o3)s2)c1
2. CC(C)=CC(=O)Cc1nc2ccc([N+](=O)[O-])cc2[nH]c1=O

result:
["> 100 µM", "> 100 µM"]

I have 5 compounds here; please give me TGI for each one.
1. COc1cc(-c2csc(NC(=O)Nc3cc(Cl)cc(Cl)c3)n2)cc(OC)c1OC
2. COc1cc2c3c(n(C)c(=O)c2cc1OC)-c1cc2c(cc1/C3=C\CCNCCCN)OCO2
3. O=C(O)CCC(NC(=O)c1ccc(Nc2nc3cc(C(F)(F)F)ccc3nc2C(=O)O)cc1)C(=O)O (stereo not drawn)
4. O=C(NC(=O)c1ccccc1[N+](=O)[O-])Nc1ccc(Oc2ncc(Cl)cn2)c(C(F)(F)F)c1
5. Cn1cccc1/C=C/c1cc(Br)c(/C=C/c2cccn2C)cc1Br

result:
> 100 µM
12.1 µM
> 100 µM
> 100 µM
43.9 µM

---

system: MALME-3M melanoma; experiment: NCI tumour cell line growth inhibition, 48 h
MEASURED_PARAMETER: TGI (µM)
One number for each entry, in µM.

I have 4 compounds here; please give me TGI for each one.
1. Cc1ccc([C@]2(C)CC[C@H](C)/C2=C\Br)c(O)c1
2. Cc1nc2ccccc2c(/C=C/c2ccc(Cl)cc2)c1C(=O)/C=C/c1ccccc1
3. CN1CCN(C2=CC(=O)c3c(O)ccc(O)c3C2=O)CC1
4. CCCCCCCCCCCCCCCC1=NC(C)(C)CN1C(C)C

result:
14.1
3.01
0.592
3.35

I have 3 compounds here; please give me TGI for each one.
1. O=C1c2ccccc2C(=O)c2[nH]c(Cc3ccc(F)cc3)nc21
2. COc1ccc2c(c1)OC[C@@H]1c3cc(O)c(OCc4ccccc4)cc3O[C@H]21
3. O=C(/C=C\c1cccc2ccccc12)c1cccc2ccccc12

result:
29.6
85.7
36.1

I have 3 compounds here; please give me TGI for each one.
1. O=C1C(=Cc2ccc(Cl)c(Cl)c2)C([O-])=C([P+](c2ccccc2)(c2ccccc2)c2ccccc2)C([O-])=C1[P+](c1ccccc1)(c1ccccc1)c1ccccc1
2. O=C1C(Cl)=C(Nc2cccc(C(F)(F)F)c2)C(=O)N1Cc1ccc(Cl)cc1
3. O=[N+]([O-])c1cccc2nccc(NCCCO)c12

result:
1: 4.9; 2: 0.741; 3: 22.1

---

test system: UACC-62 melanoma; assay: NCI tumour cell line growth inhibition, 48 h
Exercise: for every item that follows, state its recorded TGI.
Answers are plain numbers, in µM.

[
  {
    "COMPOUND": "CCN1CCC(O)(/C=C/c2ccc(C(C)C)cc2)C(C(=O)/C=C/c2ccc(C(C)C)cc2)C1 (stereo unspecified)",
    "TEST_TARGET": "UACC-62 melanoma",
    "TGI (µM)": 15.7
  },
  {
    "COMPOUND": "CC(C)(C)c1ccc(NS(=O)(=O)c2ccc3nc(NC(=O)c4cnccn4)[nH]c3c2)cc1",
    "TEST_TARGET": "UACC-62 melanoma",
    "TGI (µM)": 13.2
  },
  {
    "COMPOUND": "NC(CSSCC(N)Cc1ccccc1)Cc1ccccc1 (stereo unspecified)",
    "TEST_TARGET": "UACC-62 melanoma",
    "TGI (µM)": 44.9
  },
  {
    "COMPOUND": "CNCCN=c1ccc2c3c1c(O)c1c(O)ccc(=O)c1c3[nH]n2CCNCCO",
    "TEST_TARGET": "UACC-62 melanoma",
    "TGI (µM)": 3.07
  }
]

I have 7 compounds here; please give me TGI for each one.
1. Cc1ccc(-c2cc(O)c(-c3ccc(C)cc3C)cc2O)c(C)c1
2. O=c1ccc2nc(-c3ccccn3)nn(-c3ccccc3)c-2c1
3. Cc1cc(S(=O)(=O)/N=C(/NN)NNc2cccc(C(F)(F)F)n2)c(S)cc1Cl
4. C=CC(COC(c1ccccc1)(c1ccccc1)c1ccccc1)N(CC)CC (stereo unspecified)
5. NNC(=O)C(=O)N/N=C(\CCC(=O)Nc1ccc(Cl)cc1)Cc1nc2ccccc2s1
6. O=C(/C=C\c1cccc2ccccc12)c1cccc2ccccc12
7. Cc1cc(C(=O)c2ccccc2)c(C)c2c1[nH]c1ccc(Cl)cc12

result:
1: 19.8; 2: 4.3; 3: 37; 4: 12.5; 5: 54.3; 6: 27.8; 7: 18.7

get_value(item= "CCN(CC)CCNC(=O)c1cccc2nc3ccccc3nc12" , readout=TGI) returns 45.9

---

system: NCI-H23 lung; experiment: NCI tumour cell line growth inhibition, 48 h
MEASURED_PARAMETER: log10(TGI) (log10 of the value in µM)
Hello, just confirming the data are log10 of TGI with units of µM.

I have 2 molecules here; please give me log10(TGI) for each one.
1. COc1cc(Br)c(CC2C3=C(CCN2C(=O)C2CCC2)CC(=O)CC3)cc1O (stereo not given)
2. [N-]=[N+]=Nc1c([N+](=O)[O-])c(=O)n2c3c(cccc13)CCC2

result:
[1.72, 1.64]

---

system: UACC-257 melanoma; assay: NCI tumour cell line growth inhibition, 48 h
Exercise: for every item that follows, state its recorded GI50.

Below, 5 molecules whose answers are already recorded.
[
  {
    "MOLECULE": "O=c1oc2c(C(F)(F)F)cccc2cc1-c1csc(Nc2ccc(OCCF)cc2)n1",
    "GI50": "0.653 µM"
  },
  {
    "MOLECULE": "NC(=S)NN=C1CSSC1",
    "GI50": "1.93 µM"
  },
  {
    "MOLECULE": "CCN(c1cc(C#CCN2CCOCC2)cc(C(=O)NCc2c(C)cc(C)[nH]c2=O)c1C)C1CCC(N(C)CCOC)CC1 (centres undefined)",
    "GI50": "> 100 µM"
  },
  {
    "MOLECULE": "COc1c(B(O)O)cc(F)cc1-c1nc2ccc3[nH]ncc3c2c2c1CCCC2",
    "GI50": "3.65 µM"
  },
  {
    "MOLECULE": "COc1ccc(-c2nn(-c3ccc(NC(=O)Nc4ccc(Cl)c(C(F)(F)F)c4)cc3)cc2-c2ccncc2)cc1Cl",
    "GI50": "1.94 µM"
  }
]

I have 6 molecules here; please give me GI50 for each one.
1. Cc1ccc(Sc2cc3c(oc2=O)-c2ccccc2OC3O)cc1 (centres undefined)
2. CN(C)/N=N/c1nc[nH]c1C(N)=O
3. CC1(C)C(=O)/C(=C\c2cccnc2)C[C@]2(C)[C@H]3CC[C@@H]4[C@@H](C(=O)/C=C/c5ccncc5)CC[C@@]4(C)[C@]3(C)CC[C@@H]12
4. CCN(Cc1c(Cl)cccc1Cl)c1ccc(CO)c(Cl)c1
5. Cc1ccc([C@]2(C)CC[C@H](C)/C2=C\Br)c(O)c1
6. O=C(CCc1ccc(O)cc1)N/N=C/c1cc(Br)ccc1O

result:
1: 22.3 µM; 2: 225 µM; 3: 1.8 µM; 4: < 0.0392 µM; 5: 9.22 µM; 6: 2.62 µM

I have 3 molecules here; please give me GI50 for each one.
1. O=Nc1c(-c2c(O)[nH]c3ccc(Br)cc23)[nH]c2ccccc12
2. O=C(NC(=S)Nc1cc(Cl)ccc1O)c1cccc(Br)c1
3. CCC[CH2][Sn]1([CH2]CCC)[O]CC(C)[O]1 (centres undefined)

result:
["15 µM", "15.3 µM", "1.07 µM"]

Hello, the source for this data is PubChem BioAssay (NCI), in case you need it.
